Recorded values, source ChEMBL document CHEMBL1201862.

Would you mind telling me the reported GI50 of each entry?
- Test system: MCF7
- protocol summary: NCI tumour cell line growth inhibition, 48 h
Activity calls are given as the source filed them. No stated cut-off is given here; in the data, active = GI50 up to about 1.1 µM and inactive = higher.

Notebook: `Cc1cc(C)c(S(=O)(=O)N(CCCN)OCCCON(CCCN)S(=O)(=O)c2c(C)cc(C)cc2C)c(C)c1` , GI50 read as 1.82 µM (inactive)

Notebook: `Cc1cc(Cc2cc(C)c(N)cc2N)c(N)cc1N` , GI50 read as > 100 µM (inactive)

Notebook: `O=C(NCCCN1CCN(CCCNC(=O)Nc2cccc3ccccc23)CC1)Nc1cccc2ccccc12` , GI50 read as 17.5 µM (inactive)

Notebook: `c1ccc(C2=NCCN2)c(C2=NCCN2)c1` , GI50 read as > 100 µM (inactive)

Notebook: `Cc1sc2nc3n(c(=O)c2c1C)N=C(c1ccccc1)CS3` , GI50 read as > 100 µM (inactive)

Notebook: `O=C(O)c1ccccc1-c1ccccc1C(=O)Nc1ccc2c(c1)nc(O)c1ccccc12` , GI50 read as > 100 µM (inactive)

Notebook: O=C1NC(O)c2cc3ccccc3cc2O1 (stereo unspecified) , GI50 read as 29.6 µM (inactive)

Notebook: COc1cc(C2c3cc4c(cc3OC(N3CCOCC3)C2C)OCO4)cc(OC)c1OC(C)=O (stereo unspecified) , GI50 read as 8.59 µM (inactive)

Notebook: `Cc1nc2n(c1/C=C1/C(=O)Nc3ccccc31)CCS2` , GI50 read as 24.3 µM (inactive)

Notebook: `Oc1[nH]c(Nc2ccc(Cl)cc2)nc2ncnc1-2` , GI50 read as > 100 µM (inactive)

Notebook: `CC(C)=CCC/C(C)=C/CC/C(C)=C/CC/C(C)=C/C=C/C=C(\C)CC/C=C(\C)CC/C=C(\C)CCC=C(C)C` , GI50 read as 44.2 µM (inactive)
